experiment: Biodistribution of 177Lu-labeled αMSH analogues in mice bearing B16F10 mouse melanoma
Assay type: in vivo, C57BL/6J mice
conditionDescription: mouse, lungs, iv, total radioactivity; 120 h p.i., C57BL/6J mice, B16F10 melanoma; read-out: Biodistribution, Lungs
readoutLabel: tissue uptake at 120 h (%ID/g)
Field: numeric (%ID/g). Do not append units.

Reference set (3 entries):
CCCC[C@H](NC(=O)CN1CCC(NC(=O)[C@H](CCCCNC(=O)CN2CCN(CC(=O)O)CCN(CC(=O)O)CCN(CC(=O)O)CC2)NC(=O)[C@H](CCC(=O)O)NC(=O)CCCc2ccc(I)cc2)CC1)C(=O)N[C@H]1CC(=O)NCCCC[C@@H](C(N)=O)NC(=O)[C@H](Cc2c[nH]c3ccccc23)NC(=O)[C@H](CCCNC(=N)N)NC(=O)[C@@H](Cc2ccccc2)NC(=O)[C@H](Cc2c[nH]cn2)NC1=O [^177Lu-labeled CCZ01082, metal not drawn]
0.54
CCCC[C@H](NC(=O)CN1CCC(NC(=O)CN2CCN(CC(=O)O)CCN(CC(=O)O)CCN(CC(=O)O)CC2)CC1)C(=O)N[C@H]1CC(=O)NCCCC[C@@H](C(N)=O)N(C)C(=O)[C@H](Cc2c[nH]c3ccccc23)NC(=O)[C@H](CCCNC(=N)N)N(C)C(=O)[C@@H](Cc2ccccc2)NC(=O)[C@H](Cc2c[nH]cn2)NC1=O [^177Lu-labeled CCZ01106, metal not drawn]
0.01
CCCC[C@H](NC(=O)CN1CCC(NC(=O)[C@H](CCCCNC(=O)CN2CCN(CC(=O)O)CCN(CC(=O)O)CCN(CC(=O)O)CC2)NC(=O)[C@H](CCC(=O)O)NC(=O)CCCc2ccc(I)cc2)CC1)C(=O)N[C@H]1CC(=O)NCCCC[C@@H](C(N)=O)N(C)C(=O)[C@H](Cc2c[nH]c3ccccc23)NC(=O)[C@H](CCCNC(=N)N)N(C)C(=O)[C@@H](Cc2ccccc2)NC(=O)[C@H](Cc2c[nH]cn2)NC1=O [^177Lu-labeled CCZ01118, metal not drawn]
0.14

Task: Entry under review: CCCC[C@H](NC(=O)CN1CCC(NC(=O)CN2CCN(CC(=O)O)CCN(CC(=O)O)CCN(CC(=O)O)CC2)CC1)C(=O)N[C@H]1CC(=O)NCCCC[C@@H](C(N)=O)N(C)C(=O)[C@H](Cc2c[nH]c3ccccc23)N(C)C(=O)[C@H](CCCNC(=N)N)N(C)C(=O)[C@@H](Cc2ccccc2)NC(=O)[C@H](Cc2c[nH]cn2)N(C)C1=O [^177Lu-labeled CCZ01099, metal not drawn] . Reported tissue uptake at 120 h?
Output: 0.04
